Molecular target: Ile83Glu anti-HER2 memAb
Sequence (heavy, as listed by the source, chain 1 of 2): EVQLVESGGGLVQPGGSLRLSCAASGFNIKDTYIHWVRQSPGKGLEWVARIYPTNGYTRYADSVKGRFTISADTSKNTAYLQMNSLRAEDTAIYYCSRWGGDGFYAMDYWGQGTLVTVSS
Sequence (light, as listed by the source, chain 2 of 2): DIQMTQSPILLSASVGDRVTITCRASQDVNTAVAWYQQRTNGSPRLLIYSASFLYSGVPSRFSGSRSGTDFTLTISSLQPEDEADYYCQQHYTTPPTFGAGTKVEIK
Assay: SPR; memAb variant amine-coupled to a CM5 chip, peptide flowed over at 30 uL/min, HBS-EP+, 37 °C, Biacore T100, 1:1 binding model
Positions of bridges follow the written chain, without caps; N, C: chain ends. Non-standard residues stand in square brackets, D forms with d. No end group written: not given here. Dip = N[C@H](C(=O)O)C(c1ccccc1)c1ccccc1
reported-endpoint: Kd (nM)
Quick reminder: number only, in nM, skip the unit.

stdin: Look up Kd of Ac-CQFD[Dip]STRRLRCGGSK (disulfide 1-12 (inferred)) [5-diphenylalanine long meditope ((Ac)CQFDA(Ph)2…)] and report it.
stdout: 0.4
